// normalized growth lookup, one value per entry
experiment: chemical genetic growth profiling, strain panel (AID 1159580);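 further: tested at 20 µM; growth read once vehicle control cultures reached saturation at 30 °C; 1 = growth at the plate median or of vehicle wells; lower values mean less growth of the strain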; conditions: S. cerevisiae deletion strains, growth OD, locus YOR270C, strain vph1, active compounds read low
Among all 5,500 compounds or so, about 2,000 (36%) were called active. Roughly 18% stayed inconclusive and do not appear here. Some of the results follow.
Answer as a number with no unit attached.

O=C(C1CCCCC1)N1CC(=O)N2CCc3ccccc3C2C1 (centres undefined) | 0.955

(Q) Reported normalized growth for CCOC(=O)Nc1nc2ccccc2[nH]1 : what is it?
(A) 0.868

(Q) Input CCCCC(=O)Oc1ccccc1C(=O)O
(A) 0.96

(Q) Input CCCCOC(=O)c1ccccc1C(=O)OCCCC
(A) 0.846

(Q) Input C=C1C(=O)O[C@@H]2C[C@@]3(C)CCC[C@H](C)C3=C[C@H]12
(A) 0.583

(Q) Input Cc1c(S(=O)(=O)O)oc2c1C(=O)C(=O)c1c-2ccc2c1CCCC2(C)C
(A) 0.956

(Q) Input Cc1cc(NC(=O)C2=C(O)c3ccccc3S(=O)(=O)N2C)no1
(A) 0.969

(Q) Input Nc1ccc(N=Nc2ccccc2)c(N)n1
(A) 0.243

(Q) Input C=C1CCC(C2CC(=O)OC2=O)C(=O)CCC2C1CC2(C)C (centres undefined)
(A) 1.01

(Q) Input CC(=O)Oc1c(C)cccc1C(=O)O
(A) 1.06

(Q) Input C=CCCCCCCCCCCCC(O)CC(O)COC(C)=O (centres undefined) (tested in a mixture with another compound)
(A) 0.699
